Sourced from paper PMC8748714

# study_system: T1, GLP-1R L141A (Homo sapiens)
# T1 chain: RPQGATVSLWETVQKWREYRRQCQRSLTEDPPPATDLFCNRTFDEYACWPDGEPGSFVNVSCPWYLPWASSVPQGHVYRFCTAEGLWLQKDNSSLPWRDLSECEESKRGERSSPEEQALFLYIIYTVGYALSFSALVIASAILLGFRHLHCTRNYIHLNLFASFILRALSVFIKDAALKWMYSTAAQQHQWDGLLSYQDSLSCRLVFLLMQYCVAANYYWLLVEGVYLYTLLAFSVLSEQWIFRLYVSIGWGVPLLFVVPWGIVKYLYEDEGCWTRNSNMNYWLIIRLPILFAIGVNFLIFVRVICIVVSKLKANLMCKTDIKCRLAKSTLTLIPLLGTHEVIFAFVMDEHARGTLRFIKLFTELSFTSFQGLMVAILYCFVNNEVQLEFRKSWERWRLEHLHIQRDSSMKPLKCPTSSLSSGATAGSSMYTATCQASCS
No end group written: not given here.
Field: pIC50. Provide a value for each of the binders that follow.
Numbers only, as −log10 of the molar value.

[[record]]
binder = "HAEGTFTSDVSSYLEGQAAKEFIAWLVKGR (not fully specified (C-terminus)) [glucagon-like peptide-1]"
quantity = "pIC50"
meas_value = 7.85


Field: next binder
Look up pIC50: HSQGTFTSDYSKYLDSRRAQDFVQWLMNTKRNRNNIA [oxyntomodulin]
6.22
